Each entry below carries its reported Inhibition of Baseline PrP^5c (%) Non-dividing Cells ELISA.
Test system: PrP^Sc in nondividing ScN2a-cl3 cells; further: test concentration or dose not given here
Format: cell-based, mouse
Conditions: SPC assay, nondividing cells
Response body: numeric value in %, unit text excluded.

{"columns": ["COMPOUND", "RECORDED_NUMBER"],
 "data": [
  ["Cc1ccc2c(c1)c1c(n2CC(O)CO)C(=O)CCC1 (centres unmarked)", 39],
  ["O=C(Nc1ccc(Cl)cc1)Nc1cc(Cl)cc(Cl)c1", 51],
  ["COc1ccc(CN2CCN(c3ccc(C(C)=O)cc3)CC2)c(C)c1C", 41],
  ["CC(=O)c1ccc(N2CCN(Cc3cccc(Br)c3)CC2)cc1", 39],
  ["CC(=O)c1ccc(N2CCN(Cc3ccccc3Cl)CC2)cc1", 41],
  ["CCN1CCN(c2ccc(Nc3ccnc4cc5ccccc5cc34)cc2)CC1", 51]
]}

Now take the following compound into account.
Exam item: Form field: Inhibition of Baseline PrP^5c (%) Non-dividing Cells ELISA recorded for Clc1ccc(N2CCN(C3CCSC3)CC2)cc1 (centres unmarked) with PrP^Sc in nondividing ScN2a-cl3 cells (enter value)
Marked response: 51

###

System: PrP^Sc in dividing ScN2a-cl3 cells
Type: cell-based, mouse
Settings: AMT analogs tested for potency
pEC50: −log10 of the molar value.
Classification field: Criterion met = pEC50 at or over 6; Criterion not met = pEC50 under 6.

Answered cases to consult:
{"columns": ["RECORD_SMILES", "CLASSIFICATION"],
 "data": [
  ["COc1ccc(Nc2nc(-c3ccc(-c4ccccc4)cc3)cs2)nc1", "Criterion met"],
  ["COc1ccc(Nc2nc(-c3cc(-c4ccccc4)no3)cs2)nc1", "Criterion met"],
  ["Cc1ccnc(Nc2nc(-c3ccccc3O)cs2)c1", "Criterion not met"],
  ["COc1ccc(-c2csc(Nc3ccc(C)cn3)n2)c(OC)c1", "Criterion not met"],
  ["Cc1ccnc(Nc2nc(-c3ccc(OC(F)(F)F)cc3)cs2)c1", "Criterion not met"]
]}

Exam item: Can `Cc1ccc(Nc2nc(-c3c(-c4ccccc4)noc3C)cs2)nc1` be said to have pEC50 at or above 6?
Marked response: Criterion not met

Exam item: Can `Cc1ccc(Nc2nc(-c3cccc(C#N)c3)cs2)nc1` be said to have pEC50 at or above 6?
Marked response: Criterion not met

Exam item: Can `Cc1ccnc(Nc2nc(-c3ccc4c(c3)OCCO4)cs2)c1` be said to have pEC50 at or above 6?
Marked response: Criterion not met
